Each recorded value in this set is attributed to the array DNA melting data of Ke et al. (doi:10.1101/2024.01.08.574731).

# assay: melting temperature; fluorescence melt of hairpins on a sequencing array, two-state fit, raised by 9.35 °C to match UV melts
# measurement.parameters: sodium 0.088 M
So basically: Tm at 50 °C or higher? That is True. Lower than 50 °C? That is False.

Some solved cases for reference:
INSERT INTO results (sequence_text, class_assignment) VALUES
  ('GAGATTGAAAAATCTC ((((((....))))))', 'False'),
  ('GCGGCTTTCCGC ((((....))))', 'True'),
  ('GCAACGTCGAAAGACTGC (((..(((....))))))', 'False'),
  ('GCTGCGCGAAAGCCTAGC (((..((....))..)))', 'False'),
  ('GTTAATCGAAAGATCAAC (((.(((....))).)))', 'False');

Assess whether reported Tm for GATCCCTGGCGGGATC ((((((....)))))) sits at 50 °C or higher.
True

---

# assay: folding enthalpy; higher = less favourable; fluorescence melt of hairpins on a sequencing array, two-state fit
# measurement.parameters: sodium 0.088 M
measured.metric: folding enthalpy

INSERT INTO results (sequence_text, measured_metric, observed_value) VALUES
  ('GCACCCGAAAGGGACTGC ((((((....)))..)))', 'folding enthalpy', '-66.8 kJ/mol'),
  ('GCGCACGAAAGTGAACGC ((((((....)))..)))', 'folding enthalpy', '-131 kJ/mol'),
  ('GTCTTTGGAAACAAGGAC (((.(((....))).)))', 'folding enthalpy', '-130 kJ/mol'),
  ('GCGTTCGAAAGAAACCGC ((((((....)))..)))', 'folding enthalpy', '-106 kJ/mol');

Dear colleague, I am looking for the recorded folding enthalpy of the following sequence: GTTAAAGAAATTTAAC ((((((....))))))
-60 kJ/mol

Dear colleague, I am looking for the recorded folding enthalpy of the following sequence: GATCACGGCTGTGATC ((((((....))))))
-186 kJ/mol

Dear colleague, I am looking for the recorded folding enthalpy of the following sequence: GATCTGTTACAGATC ((((((...))))))
-152 kJ/mol

Dear colleague, I am looking for the recorded folding enthalpy of the following sequence: GCGCGCGAAAGCGCACGC ((((((....)))..)))
-48.7 kJ/mol

Dear colleague, I am looking for the recorded folding enthalpy of the following sequence: GATCCCTACTGGGATC ((((((....))))))
-158 kJ/mol

Dear colleague, I am looking for the recorded folding enthalpy of the following sequence: GTGAGCGGAAACGCCCAC (((.(((....))).)))
-99.2 kJ/mol

Dear colleague, I am looking for the recorded folding enthalpy of the following sequence: GGCCGGTCGAAAGACGCC (((..(((....))))))
-91.8 kJ/mol

Dear colleague, I am looking for the recorded folding enthalpy of the following sequence: GTACGGGGAAACCCACAC ((..(((....)))..))
-68.3 kJ/mol

---

# assay: folding enthalpy; higher = less favourable; fluorescence melt of hairpins on a sequencing array, two-state fit
# measurement.parameters: sodium 0.088 M
Catalogue of folding enthalpy values
// units = kJ/mol; emit number, no label

INSERT INTO results (sequence_text, measured_metric, observed_value) VALUES
  ('GATGGGGGAAACTCCATC (((((.(....).)))))', 'folding enthalpy', -138),
  ('GCTGAACGAAAGTTGAGC (((.(((....))).)))', 'folding enthalpy', -132),
  ('GTCGACGAAAGTCTTGAC ((((((....)))..)))', 'folding enthalpy', -64.6);

Dear colleague, I am looking for the recorded folding enthalpy of the following sequence: GTAGTCGGAAACGACTAC (((((((....)))))))
-172

Dear colleague, I am looking for the recorded folding enthalpy of the following sequence: GATCGAGGGTTCGATC ((((((....))))))
-155

Dear colleague, I am looking for the recorded folding enthalpy of the following sequence: GAGTCACCGAAAGGTCTC (((..(((....))))))
-52.9

---

Catalogue of Tm values
# assay: melting temperature; fluorescence melt of hairpins on a sequencing array, two-state fit, raised by 9.35 °C to match UV melts
# measurement.parameters: sodium 0.088 M
Note to self: number, then unit, no commentary.

Example entries begin here.
INSERT INTO measurements (sequence_text, measured_metric, observed_value) VALUES
  ('GATCGATACTTCGATC ((((((....))))))', 'Tm', '53 °C'),
  ('GGTAGCGAAAGCTTCACC ((((((....)))..)))', 'Tm', '34.4 °C'),
  ('GTTTTGGGAAACTAAAAC (((((.(....).)))))', 'Tm', '36.6 °C'),
  ('GAGGGTGCGAAAGCACTC (((..(((....))))))', 'Tm', '41.1 °C'),
  ('GGCGACGAAAGTCATGCC ((((((....)))..)))', 'Tm', '52.5 °C');

Dear colleague, I am looking for the recorded Tm of the following sequence: GTTGTACGAAAGTAAAAC (((.(((....))).)))
38.8 °C

Dear colleague, I am looking for the recorded Tm of the following sequence: GGACGCGAAAGCGGCTCC ((((((....)))..)))
58 °C

---

# assay: melting temperature; fluorescence melt of hairpins on a sequencing array, two-state fit, raised by 9.35 °C to match UV melts
# measurement.parameters: sodium 0.088 M
Each entry falls into one class according to its Tm; the ranges are bucket A (below 40 °C), bucket B (40 °C to below 50 °C), bucket C (50 °C or more)

Some solved cases for reference:
INSERT INTO assay_data (sequence_text, class_assignment) VALUES
  ('GTAACTGGAAACAGTTAC (((((((....)))))))', 'bucket C'),
  ('GCATTGCGAAAGCACAGC ((..(((....)))..))', 'bucket A'),
  ('GAGATTGCGAAAGCACTC (((..(((....))))))', 'bucket A'),
  ('GCCGATGGAAACATTGGC (((.(((....))).)))', 'bucket C'),
  ('GGCCCCGAAAGGGCGCC ((((((....))).)))', 'bucket C'),
  ('GATCGCCACCGCGATC ((((((....))))))', 'bucket C'),
  ('GGCTAGGGAAACCTGGTC (.(.(((....))).).)', 'bucket A'),
  ('GCGTATGAACGC ((((....))))', 'bucket C'),
  ('GGTCACGAAAGTGATACC ((((((....)))..)))', 'bucket B'),
  ('GTTCGTGGAAACATGAGC (.((.((....)).)).)', 'bucket A');

Please indicate the class for GTATGAGAAATCATAC ((((((....)))))) based on its Tm.
bucket B

Please indicate the class for GTGTCCCGAAAGGGTCAC (((.(((....))).))) based on its Tm.
bucket C

Please indicate the class for GCTGTAGGAAACTGTAGC (((..((....))..))) based on its Tm.
bucket A

Please indicate the class for GCGGCGCCGAAAGGCCGC (((..(((....)))))) based on its Tm.
bucket C

Please indicate the class for GAGGGCGAAAGCCAACTC ((((((....)))..))) based on its Tm.
bucket B

Please indicate the class for GCTAAGCGAAAGCTCAGC (((.(((....))).))) based on its Tm.
bucket B

---

Catalogue of folding enthalpy values
# assay: folding enthalpy; higher = less favourable; fluorescence melt of hairpins on a sequencing array, two-state fit
# measurement.parameters: sodium 0.088 M
Note to self: number, then unit, no commentary.

Example entries begin here.
INSERT INTO assay_data (sequence_text, observed_value) VALUES
  ('GATCCCTGGGGGATC ((((((...))))))', '-40.5 kcal/mol'),
  ('GCCCACGAAAGTGAGGC ((((((....))).)))', '-31.1 kcal/mol'),
  ('GCAGGGCGAAAGCATTGC (((..((....))..)))', '-19.6 kcal/mol'),
  ('GAATCAGGAAACTGACTC ((.((((....)))).))', '-17.3 kcal/mol'),
  ('GGAACCGAAAGGTGATCC ((((((....)))..)))', '-14 kcal/mol');

Dear colleague, I am looking for the recorded folding enthalpy of the following sequence: GATCACCCCGGTGATC ((((((....))))))
-36.8 kcal/mol

Dear colleague, I am looking for the recorded folding enthalpy of the following sequence: CCTCAGAAATGAGG (((((....)))))
-19.7 kcal/mol

Dear colleague, I am looking for the recorded folding enthalpy of the following sequence: GACTCCGAAAGGACGGTC ((((((....)))..)))
-17.9 kcal/mol

Dear colleague, I am looking for the recorded folding enthalpy of the following sequence: CGGGCGGAAACGCTCCCG ((((((....)))..)))
-14.7 kcal/mol
